# Tested on: KRAS PDC multicell spheroid viability
# assay_comment: Anticancer human tumor 825966-067-R-J1-PDC patient-derived colon carcinoma cell line growth inhibition [KRAS2]
# test_context: second compound 1 µM; first compound 0.1 µM; stronger effect = lower value
value_kind: viability, T/C

Take a look at these entries with their results.
INSERT INTO results (compound, value_kind, measured_value) VALUES
  ('CC(C)NCC(C(=O)N1CCN(c2ncnc3c2C(C)CC3O)CC1)c1ccc(Cl)cc1 (configuration not stated) + C=CC(=O)N1CCN(c2nc(OCC3CCCN3C)nc3c2CCN(c2cccc4cccc(C)c24)C3)CC1CC#N', 'viability, T/C', '98.3%'),
  ('Cn1nccc1Nc1nccc(-c2cc3c(s2)C(C)(C)N(CCN2CCOCC2)C3=O)n1 + CC1OCC2(CCN(c3cnc(Sc4ccnc(N)c4Cl)c(N)n3)CC2)C1N', 'viability, T/C', '115%'),
  ('CC1COCCN1c1cc(-c2ccnn2C)c2ccnc(-c3ccn[nH]3)c2n1 (configuration not stated) + COc1cc2nc(C)nc(NC(C)c3cc(N)cc(C(F)(F)F)c3)c2cc1OC1CCOC1', 'viability, T/C', '61.5%'),
  ('CN(C)C/C=C/C(=O)Nc1cc2c(Nc3ccc(F)c(Cl)c3)ncnc2cc1O[C@H]1CCOC1 + C=CC(=O)N1CCN(c2nc(OCC3CCCN3C)nc3c2CCN(c2cccc4cccc(C)c24)C3)CC1CC#N', 'viability, T/C', '77.5%'),
  ('CC1(C)CCC(CN2CCN(c3ccc(C(=O)NS(=O)(=O)c4ccc(NCC5CCOCC5)c([N+](=O)[O-])c4)c(Oc4cnc5[nH]ccc5c4)c3)CC2)=C(c2ccc(Cl)cc2)C1 + CNCc1ccccc1-c1csc(C(C)Nc2nc(C)nc3cc(OC)c(OC)cc23)c1', 'viability, T/C', '96.7%'),
  ('Cn1nccc1Nc1nccc(-c2cc3c(s2)C(C)(C)N(CCN2CCOCC2)C3=O)n1 + C=CC(=O)N1CCN(c2nc(=O)n(-c3c(C)ccnc3C(C)C)c3nc(-c4c(O)cccc4F)c(F)cc23)C(C)C1', 'viability, T/C', '83.6%');

Let's switch to this compound now.
Query: For O=C(c1cc(Cc2n[nH]c(=O)c3ccccc23)ccc1F)N1CCN(C(=O)C2CC2)CC1 + CC1OCC2(CCN(c3cnc(Sc4ccnc(N)c4Cl)c(N)n3)CC2)C1N , what is its reported viability, T/C?
Reply: 91.5%

====

# Test system: KRAS PDC multicell spheroid viability
# assay_comment: Anticancer human tumor 825966-067-R-J1-PDC cell line growth inhibition [KRAS2];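 further: spheroids exposed to compounds for 7 days; 100% = DMSO vehicle control viability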
# test_context: second compound 0.1 µM; first compound 0.316 µM; stronger effect = lower value
value_kind: viability, T/C (%)
Give your result in % as a bare value.

Consider the following illustrative entries.
INSERT INTO measurements (compound, target_under_test, measured_value) VALUES
  ('CC1(C)CCC(CN2CCN(c3ccc(C(=O)NS(=O)(=O)c4ccc(NCC5CCOCC5)c([N+](=O)[O-])c4)c(Oc4cnc5[nH]ccc5c4)c3)CC2)=C(c2ccc(Cl)cc2)C1 + COc1cc2nc(C)nc(NC(C)c3cc(N)cc(C(F)(F)F)c3)c2cc1OC1CCOC1', 'KRAS PDC multicell spheroid viability', 107),
  ('Cn1nccc1Nc1nccc(-c2cc3c(s2)C(C)(C)N(CCN2CCOCC2)C3=O)n1 + CC1OCC2(CCN(c3cnc(Sc4ccnc(N)c4Cl)c(N)n3)CC2)C1N', 'KRAS PDC multicell spheroid viability', 128);

Query: For the compound CC(=O)OC12COC1CC(O)C1(C)C(=O)C(O)C3=C(C)C(OC(=O)C(O)C(NC(=O)OC(C)(C)C)c4ccccc4)CC(O)(C(OC(=O)c4ccccc4)C21)C3(C)C (stereo not drawn) + CC1OCC2(CCN(c3cnc(Sc4ccnc(N)c4Cl)c(N)n3)CC2)C1N , what viability, T/C is on record?
Reply: 17.1

====

# Test system: KRAS PDC multicell spheroid viability
# assay_comment: Anticancer human tumor 825966-067-R-J1-PDC cell line growth inhibition [KRAS2];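 further: spheroids exposed to compounds for 7 days; 100% = DMSO vehicle control viability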
# test_context: second compound 3.16 µM; first compound 10 µM; stronger effect = lower value
value_kind: viability, T/C (%)
Only the number, expressed in %, is required.

INSERT INTO assay_data (compound, target_under_test, measured_value) VALUES
  ('CC1OCC2(CCN(c3cnc(Sc4ccnc(N)c4Cl)c(N)n3)CC2)C1N (centres undefined) + C=CC(=O)N1CCN(c2nc(=O)n(-c3c(C)ccnc3C(C)C)c3nc(-c4c(O)cccc4F)c(F)cc23)C(C)C1', 'KRAS PDC multicell spheroid viability', 23.9);

Query: Find the recorded viability, T/C belonging to COC(=O)c1ccc2c(C(=Nc3ccc(N(C)C(=O)CN4CCN(C)CC4)cc3)c3ccccc3)c(O)[nH]c2c1 + COc1cc2nc(C)nc(NC(C)c3cc(N)cc(C(F)(F)F)c3)c2cc1OC1CCOC1 and report it.
Reply: 2

Query: Find the recorded viability, T/C belonging to COc1cc(Nc2ncc3c(n2)-c2ccc(Cl)cc2C(c2c(F)cccc2OC)=NC3)ccc1C(=O)O + CNCc1ccccc1-c1csc(C(C)Nc2nc(C)nc3cc(OC)c(OC)cc23)c1 and report it.
Reply: 4.13

Query: For the compound Cn1nccc1Nc1nccc(-c2cc3c(s2)C(C)(C)N(CCN2CCOCC2)C3=O)n1 + CNCc1ccccc1-c1csc(C(C)Nc2nc(C)nc3cc(OC)c(OC)cc23)c1 , what viability, T/C is on record?
Reply: 0.47

====

# System: KRAS PDC multicell spheroid viability
# assay_comment: Anticancer human tumor 825966-067-R-J1-PDC cell line growth inhibition [KRAS2];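 further: spheroids exposed to compounds for 7 days; 100% = DMSO vehicle control viability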
# test_context: second compound 10 µM; first compound 3.16 µM; stronger effect = lower value
value_kind: viability, T/C (%)
// units = %; emit number, no label

Some compounds with recorded viability, T/C:
INSERT INTO assay_data (compound, target_under_test, value_kind, measured_value) VALUES
  ('COC(=O)c1ccc2c(C(=Nc3ccc(N(C)C(=O)CN4CCN(C)CC4)cc3)c3ccccc3)c(O)[nH]c2c1 + C=CC(=O)N1CCN(c2nc(=O)n(-c3c(C)ccnc3C(C)C)c3nc(-c4c(O)cccc4F)c(F)cc23)C(C)C1', 'KRAS PDC multicell spheroid viability', 'viability, T/C', 0.99),
  ('CC(C)NCC(C(=O)N1CCN(c2ncnc3c2C(C)CC3O)CC1)c1ccc(Cl)cc1 (stereo not given) + C=CC(=O)N1CCN(c2nc(=O)n(-c3c(C)ccnc3C(C)C)c3nc(-c4c(O)cccc4F)c(F)cc23)C(C)C1', 'KRAS PDC multicell spheroid viability', 'viability, T/C', 6.65),
  ('CC1(C)CCC(CN2CCN(c3ccc(C(=O)NS(=O)(=O)c4ccc(NCC5CCOCC5)c([N+](=O)[O-])c4)c(Oc4cnc5[nH]ccc5c4)c3)CC2)=C(c2ccc(Cl)cc2)C1 + CC1OCC2(CCN(c3cnc(Sc4ccnc(N)c4Cl)c(N)n3)CC2)C1N', 'KRAS PDC multicell spheroid viability', 'viability, T/C', 11.5),
  ('COc1cc(Nc2ncc3c(n2)-c2ccc(Cl)cc2C(c2c(F)cccc2OC)=NC3)ccc1C(=O)O + COc1cc2nc(C)nc(NC(C)c3cc(N)cc(C(F)(F)F)c3)c2cc1OC1CCOC1', 'KRAS PDC multicell spheroid viability', 'viability, T/C', 7.95);

Next up:
Query: So what does the record say about viability, T/C for CC1COCCN1c1cc(-c2ccnn2C)c2ccnc(-c3ccn[nH]3)c2n1 (stereo not given) + COc1cc2nc(C)nc(NC(C)c3cc(N)cc(C(F)(F)F)c3)c2cc1OC1CCOC1 ?
Reply: 0.97

====

# Test system: KRAS PDC multicell spheroid viability
# assay_comment: Anticancer human tumor 825966-067-R-J1-PDC cell line growth inhibition [KRAS2];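 further: spheroids exposed to compounds for 7 days; 100% = DMSO vehicle control viability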
# test_context: second compound 10 µM; first compound 3.16 µM; stronger effect = lower value
value_kind: viability, T/C

Example cases with answers are listed next.
INSERT INTO measurements (compound, measured_value) VALUES
  ('CC1COCCN1c1cc(-c2ccnn2C)c2ccnc(-c3ccn[nH]3)c2n1 (stereo not given) + CNCc1ccccc1-c1csc(C(C)Nc2nc(C)nc3cc(OC)c(OC)cc23)c1', '0.19%'),
  ('Cn1nccc1Nc1nccc(-c2cc3c(s2)C(C)(C)N(CCN2CCOCC2)C3=O)n1 + CNCc1ccccc1-c1csc(C(C)Nc2nc(C)nc3cc(OC)c(OC)cc23)c1', '2.28%'),
  ('CC(C)NCC(C(=O)N1CCN(c2ncnc3c2C(C)CC3O)CC1)c1ccc(Cl)cc1 (stereo not given) + CC1OCC2(CCN(c3cnc(Sc4ccnc(N)c4Cl)c(N)n3)CC2)C1N', '4.52%'),
  ('CC1(C)CCC(CN2CCN(c3ccc(C(=O)NS(=O)(=O)c4ccc(NCC5CCOCC5)c([N+](=O)[O-])c4)c(Oc4cnc5[nH]ccc5c4)c3)CC2)=C(c2ccc(Cl)cc2)C1 + COc1cc2nc(C)nc(NC(C)c3cc(N)cc(C(F)(F)F)c3)c2cc1OC1CCOC1', '1.84%'),
  ('CC1(C)CCC(CN2CCN(c3ccc(C(=O)NS(=O)(=O)c4ccc(NCC5CCOCC5)c([N+](=O)[O-])c4)c(Oc4cnc5[nH]ccc5c4)c3)CC2)=C(c2ccc(Cl)cc2)C1 + CNCc1ccccc1-c1csc(C(C)Nc2nc(C)nc3cc(OC)c(OC)cc23)c1', '0.66%'),
  ('CC(=O)OC12COC1CC(O)C1(C)C(=O)C(O)C3=C(C)C(OC(=O)C(O)C(NC(=O)OC(C)(C)C)c4ccccc4)CC(O)(C(OC(=O)c4ccccc4)C21)C3(C)C (stereo not given) + CNCc1ccccc1-c1csc(C(C)Nc2nc(C)nc3cc(OC)c(OC)cc23)c1', '0.18%'),
  ('O=C(c1cc(Cc2n[nH]c(=O)c3ccccc23)ccc1F)N1CCN(C(=O)C2CC2)CC1 + CC1OCC2(CCN(c3cnc(Sc4ccnc(N)c4Cl)c(N)n3)CC2)C1N', '17.4%'),
  ('CC(=O)OC12COC1CC(O)C1(C)C(=O)C(O)C3=C(C)C(OC(=O)C(O)C(NC(=O)OC(C)(C)C)c4ccccc4)CC(O)(C(OC(=O)c4ccccc4)C21)C3(C)C (stereo not given) + C=CC(=O)N1CCN(c2nc(=O)n(-c3c(C)ccnc3C(C)C)c3nc(-c4c(O)cccc4F)c(F)cc23)C(C)C1', '24.5%');

Query: Requested field: viability, T/C. Item: O=C(c1cc(Cc2n[nH]c(=O)c3ccccc23)ccc1F)N1CCN(C(=O)C2CC2)CC1 + CNCc1ccccc1-c1csc(C(C)Nc2nc(C)nc3cc(OC)c(OC)cc23)c1
Reply: 0.19%

Query: Record request: viability, T/C value, item CC1COCCN1c1cc(-c2ccnn2C)c2ccnc(-c3ccn[nH]3)c2n1 (stereo not given) + C=CC(=O)N1CCN(c2nc(=O)n(-c3c(C)ccnc3C(C)C)c3nc(-c4c(O)cccc4F)c(F)cc23)C(C)C1
Reply: 47.2%
